Listing: fold induction at 5 µM of selected compounds
Test system: HMOX1
Procedure Text: HMOX1 Protein Assay (immunostaining of HO-1 in NHLF cells, GE InCell 1000)
Assay type: cell-based
Condition: Homo sapiens, fold change above DMSO treated cells, 5 μM compound, 16 h
Description: Cell Culture. Normal Human Fibroblast (NHLF), were obtained from Lonza. Cultures of cells were maintained in Fibroblast Growth Medium (FGM-2) medium supplemented with 2% fetal bovine serum (FBS), Fibroblast Growth Factor (hFGF-B) 0.5 mL, Insulin 0.5 mL, gentamicin/amphotericin-B 0.5 mL at 37° C. in a humidified atmosphere of 5% CO2. […] HMOX1 Protein Assay. […] Plate was washed 5× with 1×PBS and read at Hoechst Ex.360 Em. […] Results analyzed using GE InCell Analyzer software. […]
Reported Property: fold induction at 5 µM

{"columns": ["Compound", "Target", "Reported Property", "Value Observed"],
 "data": [
  ["Cn1c(Nc2nc3ccc(OC(F)(F)F)cc3s2)nc2cc(C(=O)NCC(=O)N3CCOCC3)ccc21", "HMOX1", "fold induction at 5 µM", 11],
  ["COCCn1c(Nc2nc3ccc(OC(F)(F)F)cc3s2)nc2cc(C(=O)NCCOCCO)ccc21", "HMOX1", "fold induction at 5 µM", 23.7],
  ["Cn1c(Nc2nc3ccc(OC(F)(F)F)cc3s2)nc2cc(C(=O)NN3CCOCC3)ccc21", "HMOX1", "fold induction at 5 µM", 22.8],
  ["C[C@@H](O)CN1CCC(NC(=O)c2ccc3c(c2)nc(Nc2nc4ccc(OC(F)(F)F)cc4s2)n3C)C1 (some centres unmarked)", "HMOX1", "fold induction at 5 µM", 29.4],
  ["Cn1c(Nc2nc3ccc(OC(F)(F)F)cc3s2)nc2cc(C(=O)NCCN3CCC(O)CC3)ccc21", "HMOX1", "fold induction at 5 µM", 28.8],
  ["Cn1c(Nc2nc3ccc(OC(F)(F)F)cc3s2)nc2cc(C#N)ccc21", "HMOX1", "fold induction at 5 µM", 6],
  ["COCCNC(=O)c1ccc2c(c1)nc(Nc1nc3ccc(C)cc3s1)n2C", "HMOX1", "fold induction at 5 µM", 31],
  ["Cn1c(Nc2nc3ccc(OC(F)(F)F)cc3s2)nc2cc(C(=O)NCC(=O)O)ccc21", "HMOX1", "fold induction at 5 µM", 1.25]
]}

* * *

fold induction at 5 µM values for the compounds below.
System: HMOX1
Procedure Text: HMOX1 Protein Assay (immunostaining of HO-1 in NHLF cells, GE InCell 1000)
Format: cell-based
Condition: Homo sapiens, fold change above DMSO treated cells, 5 μM compound, 16 h
Counter-ions that a name gives are not always drawn.
Reported Property: fold induction at 5 µM

{"columns": ["Compound", "Target", "Reported Property", "Value Observed"],
 "data": [
  ["Cn1c(Nc2nc3ccc(Cl)cc3s2)nc2cc(C(=O)NCCN)ccc21 [Example 343, hydrochloride]", "HMOX1", "fold induction at 5 µM", 21.1],
  ["CNC(=O)CNC(=O)c1ccc2c(c1)nc(Nc1nc3ccc(OC(F)(F)F)cc3s1)n2C", "HMOX1", "fold induction at 5 µM", 18.8],
  ["Cn1c(Nc2nc3ccc(OC(F)(F)F)cc3s2)nc2cc(C(=O)NCCc3ccc(O)cc3)ccc21", "HMOX1", "fold induction at 5 µM", 29.6],
  ["COC(=O)c1ccc2c(c1)nc(Nc1nc3ccc(OC(F)(F)F)cc3s1)n2C(C)C", "HMOX1", "fold induction at 5 µM", 1.7]
]}

* * *

Test system: HMOX1
Procedure Text: HMOX1 Protein Assay (immunostaining of HO-1 in NHLF cells, GE InCell 1000)
Type: cell-based
Condition: Homo sapiens, fold change above DMSO treated cells, 5 μM compound, 16 h
Where a name gives a salt, the structure may show the parent alone.
Measured fold induction at 5 µM values are reported for all entries that follow.

{"columns": ["Molecule", "fold induction at 5 µM"],
 "data": [
  ["Cn1c(Nc2nc3ccc(OC(F)(F)F)cc3s2)nc2cc(C(=O)NC3(C(=O)O)CC3)ccc21", 1.8],
  ["CCNC(=O)c1ccc2c(c1)nc(Nc1nc3ccc(OC(F)(F)F)cc3s1)n2C", 9.45],
  ["COC(=O)[C@H](C)NC(=O)c1ccc2c(c1)nc(Nc1nc3ccc(OC(F)(F)F)cc3s1)n2C", 22.4],
  ["CN(C)C(=O)C(C)(C)NC(=O)c1ccc2c(c1)nc(Nc1nc3ccc(OC(F)(F)F)cc3s1)n2C", 41.3],
  ["CCNC(=O)c1ccc2c(c1)nc(Nc1nc3ccc(OC(F)(F)F)cc3s1)n2CC(C)C", 17.9],
  ["CN(C)C(=O)CNC(=O)c1cnc2c(c1)nc(Nc1nc3ccc(OC(F)(F)F)cc3s1)n2C", 11.1],
  ["CC(O)COCCNC(=O)c1ccc2c(c1)nc(Nc1nc3ccc(OC(F)(F)F)cc3s1)n2C (stereo not shown)", 28],
  ["Cn1c(Nc2nc3ccc(Cl)cc3s2)nc2cc(C(=O)NCCNCCF)ccc21 [Example 279, hydrochloride]", 89.2],
  ["Cn1c(Nc2nc3ccc(OC(F)(F)F)cc3s2)nc2cc(C(=O)NCC#N)ccc21", 46.1],
  ["Cn1c(Nc2nc3ccc(OC(F)(F)F)cc3s2)nc2cc(C(=O)NCCOCCCF)ccc21", 28.3],
  ["CC(C)Cn1c(Nc2nc3ccc(OC(F)(F)F)cc3s2)nc2cc(C(=O)O)ccc21", 26.3],
  ["Cn1c(Nc2nc3ccc(Cl)cc3s2)nc2cc(C(=O)NCC(=O)NC3CCOC3)ccc21 (stereo not shown)", 26],
  ["Cn1c(Nc2nc3ccc(OC(F)(F)F)cc3s2)nc2cc(C(=O)NCC(=O)N3CCC(O)C3)ccc21 (stereo not shown)", 31.7],
  ["Cn1c(Nc2nc3ccc(OC(F)(F)F)cc3s2)nc2cc(C(=O)NCCN3CCOCC3)ccc21", 29.6],
  ["Cn1c(Nc2nc3ccc(OC(F)(F)F)cc3s2)nc2cc(C(=O)NCCOCCF)ccc21", 11.3],
  ["CNC(=O)c1ccc2c(c1)nc(Nc1nc3ccc(C(F)(F)F)cc3s1)n2C", 19]
]}

* * *

System: HMOX1
Procedure Text: HMOX1 Protein Assay (immunostaining of HO-1 in NHLF cells, GE InCell 1000)
Assay type: cell-based
Condition: Homo sapiens, fold change above DMSO treated cells, 5 μM compound, 16 h
Counter-ions that a name gives are not always drawn.
Category key, based on recorded fold induction at 5 µM: LOW (below 20), MEDIUM (20 to below 30), HIGH (30 or more)

{"columns": ["Compound", "Target", "Category Label"],
 "data": [
  ["Cn1c(Nc2nc3ccc(Cl)cc3s2)nc2cc(C(=O)N[C@H]3CC[C@H](C(=O)O)CC3)ccc21 [Example 378]", "HMOX1", "MEDIUM"],
  ["Cn1c(Nc2nc3ccc(OC(F)(F)F)cc3s2)nc2cc(C(=O)NCCN3CCOCC3)c(F)cc21 [Example 59]", "HMOX1", "HIGH"],
  ["Cn1c(Nc2nc3ccc(OC(F)(F)F)cc3s2)nc2cc(C(=O)N3CCC(CCCO)CC3)ccc21 [Example 307]", "HMOX1", "HIGH"],
  ["CCN(CC)CCCCNC(=O)c1ccc2c(c1)nc(Nc1nc3ccc(OC(F)(F)F)cc3s1)n2C [Example 360]", "HMOX1", "HIGH"],
  ["Cn1c(Nc2nc3ccc(OC(F)(F)F)cc3s2)nc2cc(C(=O)NCCCn3cccn3)ccc21 [Example 11]", "HMOX1", "MEDIUM"],
  ["COCCNC(=O)c1ccc2c(c1)nc(Nc1nc3ccc(OC(F)(F)F)cc3s1)n2CCF [Example 171]", "HMOX1", "MEDIUM"],
  ["CSCCCNC(=O)c1ccc2c(c1)nc(Nc1nc3ccc(OC(F)(F)F)cc3s1)n2C [Example 108]", "HMOX1", "LOW"],
  ["CN(C)C(=O)[C@H](CO)NC(=O)c1ccc2c(c1)nc(Nc1nc3ccc(OC(F)(F)F)cc3s1)n2C [Example 368]", "HMOX1", "HIGH"],
  ["COC(=O)c1ccc2c(c1)nc(Nc1nc3ccc(C)cc3s1)n2C [Example 114]", "HMOX1", "LOW"],
  ["CCNC(=O)c1ccc2c(c1)nc(Nc1nc3ccc(C(F)(F)F)cc3s1)n2C [Example 26]", "HMOX1", "LOW"],
  ["Cn1c(Nc2nc3ccc(OC(F)(F)F)cc3s2)nc2cc(C(=O)NCCNC(=O)OC(C)(C)C)ccc21 [Example 103]", "HMOX1", "LOW"],
  ["Cc1ccc2nc(Nc3nc4cc(C(=O)O)ccc4n3C)sc2c1 [Example 120]", "HMOX1", "LOW"],
  ["Cn1c(Nc2nc3ccc(OC(F)(F)F)cc3s2)nc2cc(C(=O)NCC(=O)N3CCC(C(F)(F)F)CC3)ccc21 [Example 449]", "HMOX1", "MEDIUM"],
  ["CN1CCC[C@@H](NC(=O)CNC(=O)c2ccc3c(c2)nc(Nc2nc4ccc(Cl)cc4s2)n3C)C1 [Example 388]", "HMOX1", "MEDIUM"],
  ["CN1CCC(NC(=O)c2ccc3c(c2)nc(Nc2nc4ccc(Cl)cc4s2)n3C)CC1 [Example 319]", "HMOX1", "MEDIUM"],
  ["CCOCCNC(=O)c1ccc2c(c1)nc(Nc1nc3ccc(OC(F)(F)F)cc3s1)n2C [Example 4]", "HMOX1", "LOW"],
  ["CN(C)CC(=O)N1CCC[C@@H](NC(=O)c2ccc3c(c2)nc(Nc2nc4ccc(Cl)cc4s2)n3C)C1 [Example 311]", "HMOX1", "HIGH"],
  ["CNC(=O)c1ccc2c(c1)nc(Nc1nc3ccc(F)cc3s1)n2C [Example 124]", "HMOX1", "MEDIUM"],
  ["COCCNC(=O)c1ccc2c(c1)nc(Nc1nc3ccc(OC(F)(F)F)cc3s1)n2C [Example 8]", "HMOX1", "LOW"],
  ["Cn1c(Nc2nc3ccc(Cl)cc3s2)nc2cc(C(=O)NCCOCCCF)ccc21 [Example 249]", "HMOX1", "HIGH"],
  ["CCCNC(=O)c1ccc2c(c1)nc(Nc1nc3ccc(OC(F)(F)F)cc3s1)n2C [Example 12]", "HMOX1", "LOW"],
  ["CN(C)[C@H]1CCN(C(=O)CNC(=O)c2ccc3c(c2)nc(Nc2nc4ccc(OC(F)(F)F)cc4s2)n3C)C1 [Example 416]", "HMOX1", "HIGH"],
  ["COCCOCCNC(=O)c1ccc2c(c1)nc(Nc1nc3ccc(OC(F)(F)F)cc3s1)n2C [Example 260]", "HMOX1", "MEDIUM"],
  ["CN(C)C(=O)CNC(=O)c1cc2nc(Nc3nc4ccc(OC(F)(F)F)cc4s3)n(C)c2cc1F [Example 58]", "HMOX1", "HIGH"],
  ["COCCn1c(Nc2nc3ccc(OC(F)(F)F)cc3s2)nc2cc(C(=O)NCC(=O)N3CCN(C)CC3)ccc21 [Example 189]", "HMOX1", "MEDIUM"],
  ["Cn1c(Nc2nc3ccc(Cl)cc3s2)nc2cc(C(=O)NCCO)ccc21 [Example 30]", "HMOX1", "MEDIUM"],
  ["Cn1c(Nc2nc3ccc(OC(F)(F)F)cc3s2)nc2cc(C(=O)NCCOCCOCCO)ccc21 [Example 256]", "HMOX1", "HIGH"],
  ["Cn1c(Nc2nc3ccc(Cl)cc3s2)nc2cc(C(=O)NCC(=O)N3CC[C@H](N)C3)ccc21 [Example 411, hydrochloride]", "HMOX1", "LOW"]
]}

Source listed as patent US8759535B2.
